# SYSTEM: T1, IL10 receptor (IL10 receptor subunit alpha IL10Ra and beta subunit IL10Rb) on Ramos/STAT3-Luc and … (UniProt Q13651 22-578; Q08334 20-325, limits assumed)
# T1 sequence (looked up) 1: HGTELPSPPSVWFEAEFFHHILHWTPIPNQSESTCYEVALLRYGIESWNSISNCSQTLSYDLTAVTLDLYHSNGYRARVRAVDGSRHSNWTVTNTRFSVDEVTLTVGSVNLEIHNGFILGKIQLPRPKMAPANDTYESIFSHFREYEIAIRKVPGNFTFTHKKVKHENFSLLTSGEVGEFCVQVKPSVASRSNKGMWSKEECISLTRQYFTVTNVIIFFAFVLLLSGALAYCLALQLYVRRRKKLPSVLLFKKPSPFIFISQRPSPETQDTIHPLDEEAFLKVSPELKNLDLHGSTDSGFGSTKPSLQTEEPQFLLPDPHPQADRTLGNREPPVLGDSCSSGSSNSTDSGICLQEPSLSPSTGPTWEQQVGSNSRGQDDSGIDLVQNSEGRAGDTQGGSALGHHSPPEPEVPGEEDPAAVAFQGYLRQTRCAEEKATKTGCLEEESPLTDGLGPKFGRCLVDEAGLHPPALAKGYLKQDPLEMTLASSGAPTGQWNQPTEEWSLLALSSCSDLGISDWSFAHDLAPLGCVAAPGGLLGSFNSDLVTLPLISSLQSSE
# T1 sequence (looked up) 2: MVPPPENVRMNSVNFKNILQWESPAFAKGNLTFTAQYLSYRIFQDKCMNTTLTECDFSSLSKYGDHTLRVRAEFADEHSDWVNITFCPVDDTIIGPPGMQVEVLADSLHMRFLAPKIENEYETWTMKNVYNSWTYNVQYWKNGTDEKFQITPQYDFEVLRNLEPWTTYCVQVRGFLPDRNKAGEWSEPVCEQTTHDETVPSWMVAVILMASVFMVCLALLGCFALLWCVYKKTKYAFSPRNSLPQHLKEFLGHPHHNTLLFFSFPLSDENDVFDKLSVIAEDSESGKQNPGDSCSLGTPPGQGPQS
# PROTOCOL_SUMMARY: cell-based or functional assay
Measured Fold Induction of luciferase activity, Ramos/Stat3-Luc reporter cells accompanies every entry in the list below.
PROPERTY_MEASURED: Fold Induction of luciferase activity, Ramos/Stat3-Luc reporter cells

| BINDER | REPORTED_VALUE |
| --- | --- |
| IL10M6 (hIL10-2XG4S-Fc; Fc is IgG4s) (Fc fusion) SPGQGTQSENSCTHFPGNLPNMLRDLRDAFSRVKTFFQMKDQLDNLLLKESLLEDFKGYLGCQALSEMIQFYLEEVMPQAENQDPDIKAHVNSLGENLKTLRLRLRRCHRFLPCENKSKAVEQVKNAFNKLQEKGIYKAMSEFDIFINYIEAYMTMKIRNGGGGSGGGGSESKYGPPCPPCPAPPVAGPSVFLFPPKPKDTLMISRTPEVTCVVVDVSQEDPEVQFNWYVDGVEVHNAKTKPREEQFNSTYRVVSVLTVLHQDWLNGKEYKCKVSNKGLPSSIEKTISKAKGQPREPQVYTLPPSQEEMTKNQVSLTCLVKGFYPSDIAVEWESNGQPENNYKTTPPVLDSDGSFFLYSRLTVDKSRWQEGNVFSCSVMHEALHNHYTQKSLSLSLGK | 3.02 fold |
| IL10M5 (Fc-1XG4S-hIL10; Fc is IgG4s) (Fc fusion) ESKYGPPCPPCPAPPVAGPSVFLFPPKPKDTLMISRTPEVTCVVVDVSQEDPEVQFNWYVDGVEVHNAKTKPREEQFNSTYRVVSVLTVLHQDWLNGKEYKCKVSNKGLPSSIEKTISKAKGQPREPQVYTLPPSQEEMTKNQVSLTCLVKGFYPSDIAVEWESNGQPENNYKTTPPVLDSDGSFFLYSRLTVDKSRWQEGNVFSCSVMHEALHNHYTQKSLSLSLGKGGGGSSPGQGTQSENSCTHFPGNLPNMLRDLRDAFSRVKTFFQMKDQLDNLLLKESLLEDFKGYLGCQALSEMIQFYLEEVMPQAENQDPDIKAHVNSLGENLKTLRLRLRRCHRFLPCENKSKAVEQVKNAFNKLQEKGIYKAMSEFDIFINYIEAYMTMKIRN | 3.81 fold |
